# TESTED_SYSTEM: BRD4 (BD1) (Homo sapiens)
# Construct: Each member comprises two tandem bromodomains (BD1 and BD2) for recognizing the acetylated lysine residues
# PROCEDURE_DETAILS: BRD4 (BD1) bromodomain binding, HTRF
# CONDITION_CONTEXT: 2 h incubation at r.t.
# reported IC50; entries follow
OUTCOME_MEASURE: IC50 (nM)

MOL	OUTCOME_MEASURE	RESULT_NUMBER
Cn1cc2c(c1C#N)CC(=O)N(c1ccc(F)cc1)c1ccc(CS(C)(=O)=O)cc1-2	IC50	148
CCS(=O)(=O)Cc1cc2c(cn1)C(c1ccc(Cl)cc1)=NCc1cc(=O)n(C)cc1-2	IC50	12
Cn1cc2c(c1C(N)=O)CC(=O)N(c1ccc(F)cc1)c1ccc(CS(C)(=O)=O)cc1-2	IC50	124

These data points were gathered from patent US20190284192A1.
